- Test system: NCI-H522
- protocol-details: NCI tumour cell line growth inhibition, 48 h
Activity calls are given as the source filed them. Cut-off read from the data, not from the text of the source: active = GI50 up to about 1.1 µM and inactive = higher.
Could you please report measured GI50 for the items listed next?

smiles-str	result
CC/C=C/C[C@H](O[Si](C)(C)C(C)(C)C)[C@H]1C[C@H]2O[C@H]([C@@H](O)C#C[Si](C)(C)C)C[C@H]2O1	3.64 µM (inactive)
CN1CCN(c2nc3c(c(=O)n(C)c(=O)n3C)n2C)CC1	> 100 µM (inactive)

Next compound, please.
Input line: Provide GI50 value for the following compound: COc1cc(/N=C\N(C)C)c2ncccc2c1
Output line: 68.9 µM (inactive)

====

- System: SF-295
- protocol-details: NCI tumour cell line growth inhibition, 48 h
The source made the active and inactive calls. Cut-off read from the data, not from the text of the source: active = GI50 up to about 1.1 µM and inactive = higher.
Could you please report measured GI50 for the items listed next?

compound	system-tested	GI50
O=C(NS(=O)(=O)OCC(Cl)(Cl)Cl)SCCC(F)(F)C(F)(F)C(F)(F)C(F)(F)C(F)(F)C(F)(F)F	SF-295	20.2 µM (inactive)
Cc1ccc(N2CN3OC(=O)N(c4ccccc4)[C@@]3(c3ccccc3)C2)cc1	SF-295	17.5 µM (inactive)

For every record below, what is its GI50?
1. CC1(C)CC(C#Cc2ccccc2)CC(C)(C)N1O
2. COC(=O)C1(F)C(=O)NC(=O)NC1O (configuration not stated)
3. Cc1c(Cl)c(S(N)(=O)=O)cc(S(N)(=O)=O)c1NC(=O)c1ccc(Cl)cc1
4. C=C(Br)CN(CC(=C)Br)C(C)=O

Output line:
["15.6 µM (inactive)", "> 100 µM (inactive)", "> 100 µM (inactive)", "> 100 µM (inactive)"]

For every record below, what is its GI50?
1. COc1cc([C@@H]2c3cc4c(cc3[C@@H](Nc3ccc(Cl)cc3C(=O)c3ccccc3Cl)[C@H]3COC(=O)[C@H]23)OCO4)cc(OC)c1OC
2. CCCN(CCC)C(=S)N/N=C(/C)c1ccccc1O
3. Oc1ccc2ccccc2c1OCc1nnc(CCCCCCCCc2nnc(COc3c(O)ccc4ccccc34)o2)o1
4. CC(C)=CCc1c(O)c(CC=C(C)C)c2oc(-c3ccc(O)cc3O)c(CC=C(C)C)c(=O)c2c1O

Output line:
1. 0.121 µM (active)
2. 6.41 µM (inactive)
3. > 100 µM (inactive)
4. 7.45 µM (inactive)

For every record below, what is its GI50?
1. NNC(=S)N/N=C(\C(=O)Nc1cccc(O)c1)C1C(=O)NC(=S)NC1=O
2. NCCCCNCCCNC(=O)c1nc(-c2nc(CCN)sc2Cl)sc1Cl

Output line:
1. > 100 µM (inactive)
2. 59.8 µM (inactive)
